- system-name: TYK2 JH2 (Homo sapiens, UniProt P29597)
- Construct: purchased DiscoverX (KINOMEscan KdELECT service); host or cells: E. coli BL21-derived (T7 phage display) or HEK-293
- Sequence (P29597 589-875 limits assumed): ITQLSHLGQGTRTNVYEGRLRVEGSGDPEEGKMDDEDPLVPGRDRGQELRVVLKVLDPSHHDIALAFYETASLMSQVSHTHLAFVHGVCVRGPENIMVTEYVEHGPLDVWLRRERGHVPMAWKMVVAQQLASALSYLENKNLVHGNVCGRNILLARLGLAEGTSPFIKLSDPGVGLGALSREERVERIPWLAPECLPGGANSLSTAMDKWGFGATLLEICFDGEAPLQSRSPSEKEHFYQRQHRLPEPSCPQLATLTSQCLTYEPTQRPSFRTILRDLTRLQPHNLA
- measurement-notes: TYK2 JH2 binding assay (KINOMEscan KdELECT competitive binding)
- condition-description: TYK2 JH2 domain, KINOMEscan KdELECT (Assay A); read-out: Biochemical TYK2_JH2_Kd
// values below are reported Kd

Recorded Kd, per entry:
CNc1ncc(-c2cnc(C)o2)c2cc(NC(=O)C3CC3)ncc12 = ≤ 100 nM
CNc1ncc(-c2ccccc2)c2cc(NC(=O)C3CC3F)ncc12 (centres unmarked) [Example 104] = ≤ 100 nM
CNc1ncc(-c2ccncc2OC)c2cc(NC(=O)C3CC3)ncc12 = ≤ 100 nM
CNc1ncc(-c2cc(C)ns2)c2cc(NC(=O)C3CC3)ncc12 = ≤ 100 nM

// next entry
// returns reported Kd for input `CNc1nc(C)cc2cc(NC(=O)C3CC3)ncc12` 100 to 1000 nM

* * *

// values below are reported IC50
- Test system: JAK1/TYK2 pSTAT5 (Tyr694/699) in THP-1 cell line
- measurement-notes: IFNa-stimulated JAK1/TYK2 pSTAT5 (Tyr694/699) inhibition cellular assay, AlphaLISA
- Assay type: cell-based
- condition-description: Homo sapiens; THP-1 cells, IFNa-stimulated, AlphaLISA (Assay B); read-out: Cellular THP1_IFNa-pSTATS_IC50

Recorded IC50, per entry:
CNc1ncc(C2CC2)c2cc(NC(=O)C3CC3)ncc12 [Example 28] = > 500 nM
CNc1ncc(CC2CCOC2)c2cc(NC(=O)C3CC3)ncc12 (centres unmarked) [Example 80] = > 500 nM
CNc1ncc(-c2cccc(S(C)(=O)=O)c2)c2cc(NC(=O)C3CC3)ncc12 [Example 29] = > 500 nM
CNc1nc(C)cc2cc(NC(=O)C3CC3)ncc12 [Example 163] = > 500 nM

// next entry
// returns reported IC50 for input CNc1ncc(C2=CCOCC2)c2cc(NC(=O)C3CC3)ncc12 [Example 67] > 500 nM

* * *

- system-name: TYK2 JH2 (Homo sapiens, UniProt P29597)
- Construct: purchased DiscoverX (KINOMEscan KdELECT service); host or cells: E. coli BL21-derived (T7 phage display) or HEK-293
- measurement-notes: TYK2 JH2 binding assay (KINOMEscan KdELECT competitive binding)
- condition-description: TYK2 JH2 domain, KINOMEscan KdELECT (Assay A); read-out: Biochemical TYK2_JH2_Kd
pKd: −log10 of the molar value.
// values below are reported pKd

// returns reported pKd for input CNc1ncc(-c2ccc(C3CC3)cc2)c2cc(NC(=O)C3CC3)ncc12 [Example 113] ≥ 7.00

* * *

- system-name: TYK2 JH2 (Homo sapiens, UniProt P29597)
- Construct: purchased DiscoverX (KINOMEscan KdELECT service); host or cells: E. coli BL21-derived (T7 phage display) or HEK-293
- measurement-notes: TYK2 JH2 binding assay (KINOMEscan KdELECT competitive binding)
- condition-description: TYK2 JH2 domain, KINOMEscan KdELECT (Assay A); read-out: Biochemical TYK2_JH2_Kd
pKd: −log10 of the molar value.
metric-name: pKd

// returns reported pKd for input `CNc1ncc(-c2ccsn2)c2cc(NC(=O)C3CC3)ncc12` ≥ 7.00

* * *

- system-name: TYK2 JH2 (Homo sapiens)
- Construct: purchased DiscoverX (KINOMEscan KdELECT service); host or cells: E. coli BL21-derived (T7 phage display) or HEK-293
- measurement-notes: TYK2 JH2 binding assay (KINOMEscan KdELECT competitive binding)
- condition-description: TYK2 JH2 domain, DiscoverX KINOMEscan KdELECT (Assay A); read-out: Biochemical TYK2_DiscoverX_JH2_BND_Kd
metric-name: Kd

CNc1ncc(-c2nc3cc(N4CC5COCC(C4)N5C)ccc3o2)c2cc(NC(=O)C3CC3)ncc12 = ≤ 100 nM
CNc1ncc(-c2nc3cc(OC)ccc3o2)c2cc(Nc3ccc(C(C)(C)O)cn3)ncc12 = ≤ 100 nM
CNc1ncc(-c2nc3cc(N4CC(C)(C)C4)ccc3o2)c2cc(NC(=O)C3CC3)ncc12 = ≤ 100 nM

// next entry
// returns reported Kd for input `O=C(Nc1cc2c(-c3nc4ccccc4o3)cnc(O)c2cn1)C1CC1` ≤ 100 nM

* * *

- System: JAK1/TYK2 pSTAT5 (Tyr694/699) in THP-1 cell line
- measurement-notes: IFNa-stimulated JAK1/TYK2 pSTAT5 (Tyr694/699) inhibition cellular assay, AlphaLISA
- Type: cell-based
- condition-description: Homo sapiens; THP-1 cells, IFNa-stimulated, AlphaLISA (Assay B); read-out: Cellular THP1_IFNa-pSTATS_IC50
pIC50: −log10 of the molar value.
metric-name: pIC50

CNc1ncc(/C=C/c2ccccc2)c2cc(NC(=O)C3CC3)ncc12 [Example 33] = ≥ 6.30
CNc1ncc(-c2nc3ccccn3n2)c2cc(NC(=O)C3CC3)ncc12 [Example 155] = ≥ 6.30

// next entry
// returns reported pIC50 for input CNc1ncc(-c2ccccc2Cl)c2cc(NC(=O)C3CC3)ncc12 [Example 15] < 6.30

* * *

// values below are reported pIC50
- Tested on: JAK1/TYK2 pSTAT5 (Tyr694/699) in THP-1 cell line
- measurement-notes: IFNa-stimulated JAK1/TYK2 pSTAT5 (Tyr694/699) inhibition cellular assay, AlphaLISA
- Type: cell-based
- condition-description: Homo sapiens; THP-1 cells, IFNa-stimulated, AlphaLISA (Assay B); read-out: Cellular THP1_IFNa-pSTATS_IC50
pIC50: −log10 of the molar value.

Recorded pIC50, per entry:
CNc1ncc(-c2ccn(CC3CCSCC3)n2)c2cc(NC(=O)C3CC3)ncc12 [Example 153A] = < 6.30
CNc1ncc(/C=C/c2cccc(OC)c2)c2cc(NC(=O)C3CC3)ncc12 = ≥ 6.30
CCc1cnc(NC)c2cnc(NC(=O)C3CC3)cc12 = < 6.30
CNc1ncc(-c2cccc(-c3ncn(C)n3)c2OC)c2cc(NC(=O)C3CC3)ncc12 = < 6.30
CNc1ncc(-c2nccs2)c2cc(NC(=O)C3CC3)ncc12 = < 6.30

// next entry
// returns reported pIC50 for input `CNc1ncc(-c2ccccc2)c2cc(NC(=O)C3(C)CC3)ncc12` < 6.30

* * *

// values below are reported pIC50
- Tested on: JAK1/TYK2 pSTAT5 (Tyr694/699) in THP-1 cell line
- measurement-notes: IFNa-stimulated JAK1/TYK2 pSTAT5 (Tyr694/699) inhibition cellular assay, AlphaLISA
- Assay type: cell-based
- condition-description: Homo sapiens; THP-1 cells, IFNa-stimulated, AlphaLISA (Assay B); read-out: Cellular THP1_IFNa-pSTATS_IC50
pIC50: −log10 of the molar value.

CNc1ncc(-c2ccc(COC)cc2)c2cc(NC(=O)C3CC3)ncc12 [Example 169] = < 6.30
CNc1ncc(-c2ccncc2)c2cc(NC(=O)C3CC3)ncc12 [Example 9] = < 6.30
CNc1ncc(-c2cc(Br)no2)c2cc(NC(=O)C3CC3)ncc12 [Example 126] = < 6.30
CNc1ncc(-c2ccn(CC(F)(F)F)n2)c2cc(NC(=O)C3CC3)ncc12 [Example 64] = ≥ 6.30
CNc1ncc(-c2nc3c(F)cccc3o2)c2cc(NC(=O)C3CC3)ncc12 [Example 184] = ≥ 6.30
CNc1ncc(C2CCOC2)c2cc(NC(=O)C3CC3)ncc12 (centres unmarked) [Example 76] = < 6.30
CNc1ncc(C2=CCCCC2)c2cc(NC(=O)C3CC3)ncc12 [Example 69] = < 6.30
CNc1ncc(Cc2ccc(OC)cc2)c2cc(NC(=O)C3CC3)ncc12 [Example 34] = < 6.30

// returns reported pIC50 for input CNc1ncc(-c2cnn(C)c2)c2cc(NC(=O)C3CC3)ncc12 [Example 25] < 6.30

Repeat for the following compound: CNc1ncc(-c2ccsn2)c2cc(NC(=O)C3CC3)ncc12 [Example 82] < 6.30

Repeat for the following compound: CNc1ncc(-c2ccnn2C2CCCCO2)c2cc(NC(=O)C3CC3)ncc12 (centres unmarked) [Example 51] < 6.30

Repeat for the following compound: CNc1ncc(-c2c(C)cnn2C2CCCCO2)c2cc(NC(=O)C3CC3)ncc12 (centres unmarked) [Example 39] < 6.30

Repeat for the following compound: CNc1ncc(-c2ccncc2OC)c2cc(NC(=O)C3CC3)ncc12 [Example 8] < 6.30

Repeat for the following compound: CNc1ncc(-n2cccn2)c2cc(NC(=O)C3CC3)ncc12 [Example 57] < 6.30

Repeat for the following compound: CNc1ncc(-c2ncn(C)n2)c2cc(NC(=O)C3CC3)ncc12 [Example 141] < 6.30

Repeat for the following compound: CNc1ncc(C(=O)O)c2cc(NC(=O)C3CC3)ncc12 [Example 120] < 6.30
